Test system: Enterococcus faecalis
Assay Protocol: Tested for inhibition of visible growth of Streptococcus faecalis
Assay type: functional
Endpoint Name: MIC (µg/mL)

compound="CC(=O)OCC1=C(C(=O)O)N2C(=O)C(NC(=O)[C@H](N)c3ccc4c(c3)CCO4)C2SC1 (some centres undefined)" quantity_unit=µg/mL endpoint_value=50

(A) Cc1nnc(SCC2=C(C(=O)O)N3C(=O)C(NC(=O)[C@H](N)c4ccc5c(c4)CCO5)C3SC2)s1 (some centres undefined)
(B) CC1(C)SC2C(NC(=O)C(N)c3ccc4c(c3)OCO4)C(=O)N2C1C(=O)O (centres undefined)
(C) Cn1nnnc1SCC1=C(C(=O)O)N2C(=O)C(NC(=O)[C@H](N)c3ccc4c(c3)OCO4)C2SC1 (some centres undefined)
(D) CC1(C)S[C@@H]2[C@H](NC(=O)[C@H](N)c3ccc(O)cc3)C(=O)N2[C@H]1C(=O)O
Exercise: Descending sort on MIC required. # format: label list in the order the request specifies
Key: A, C, B, D

* * *

Test system: Klebsiella pneumoniae
Assay Protocol: Tested for inhibition of visible growth of Klebsiella pneumoniae
Assay type: functional
Endpoint Name: MIC (µg/mL)

A selection of reference data follows.
molecule="CC1=C(C(=O)O)N2C(=O)C(NC(=O)[C@H](N)c3ccc4c(c3)CCO4)C2SC1 (some centres undefined)" quantity_unit=µg/mL endpoint_value=25
molecule=CC(=O)OCC1=C(C(=O)O)N2C(=O)[C@@H](NC(=O)Cc3cccs3)[C@H]2SC1 quantity_unit=µg/mL endpoint_value=3.1
molecule="CC1=C(C(=O)O)N2C(=O)C(NC(=O)[C@H](N)c3ccc4c(c3)OCCO4)C2SC1 (some centres undefined)" quantity_unit=µg/mL endpoint_value=100

(I) CC1=C(C(=O)O)N2C(=O)[C@@H](NC(=O)[C@H](N)c3ccccc3)[C@H]2SC1 [CEPHALEXIN ANHYDROUS]
(II) CC1(C)S[C@@H]2[C@H](NC(=O)C(C(=O)O)c3ccccc3)C(=O)N2[C@H]1C(=O)O (some centres undefined)
(III) CC(=O)OCC1=C(C(=O)O)N2C(=O)C(NC(=O)C(O)c3ccc4c(c3)CCO4)C2SC1 (racemic)
Exercise: Descending sort on MIC required. # format: label list in the order the request specifies
Key: III, II, I

* * *

Test system: Proteus mirabilis
Assay Protocol: Tested for inhibition of visible growth of Proteus mirabilis
Assay type: functional
Form field: MIC (one value per entry).

compound="CC1=C(C(=O)O)N2C(=O)C(NC(=O)C(N)c3ccc4c(c3)CCO4)C2SC1 (racemic)" endpoint_name=MIC endpoint_value="> 200 µg/mL"
compound="CC1=C(C(=O)O)N2C(=O)C(NC(=O)[C@H](N)c3ccc4c(c3)CCO4)C2SC1 (some centres undefined)" endpoint_name=MIC endpoint_value="> 100 µg/mL"
compound="CC1=C(C(=O)O)N2C(=O)C(NC(=O)C(N)c3ccc4c(c3)OCCO4)C2SC1 (mixture of isomers)" endpoint_name=MIC endpoint_value="> 200 µg/mL"

Turning now to a further record.
Exercise: # MIC lookup, item CC1=C(C(=O)O)N2C(=O)C(NC(=O)C(N)c3cccc4c3OCO4)C2SC1 (centres undefined)
Key: > 200 µg/mL

* * *

Form field: MIC (one value per entry).
Tested on: Enterococcus faecalis
Assay Protocol: Tested for inhibition of visible growth of Streptococcus faecalis
Assay type: functional

A selection of reference data follows.
compound="CC1=C(C(=O)O)N2C(=O)C(NC(=O)[C@H](N)c3ccc4c(c3)OCCO4)C2SC1 (stereo not given in full)" target_desc="Enterococcus faecalis" endpoint_name=MIC endpoint_value="> 100 µg/mL"
compound="CC(=O)OCC1=C(C(=O)O)N2C(=O)C(NC(=O)C(O)c3ccc4c(c3)OCO4)C2SC1 (racemic)" target_desc="Enterococcus faecalis" endpoint_name=MIC endpoint_value="> 200 µg/mL"
compound="CC1=C(C(=O)O)N2C(=O)C(NC(=O)C(N)c3cccc4c3OCO4)C2SC1 (stereo not given)" target_desc="Enterococcus faecalis" endpoint_name=MIC endpoint_value="> 200 µg/mL"
compound="CC1=C(C(=O)O)N2C(=O)C(NC(=O)C(N)c3ccc4c(c3)CCO4)C2SC1 (racemic)" target_desc="Enterococcus faecalis" endpoint_name=MIC endpoint_value="> 200 µg/mL"
compound="CC1=C(C(=O)O)N2C(=O)C(NC(=O)C(N)c3ccc4c(c3)OCCO4)C2SC1 (mixture of isomers)" target_desc="Enterococcus faecalis" endpoint_name=MIC endpoint_value="> 200 µg/mL"

Exercise: # MIC lookup, item CC(=O)OCC1=C(C(=O)O)N2C(=O)C(NC(=O)C(O)c3ccc4c(c3)CCO4)C2SC1 (racemic)
Key: > 200 µg/mL

Exercise: # MIC lookup, item CC1=C(C(=O)O)N2C(=O)C(NC(=O)[C@H](N)c3ccc4c(c3)OCO4)C2SC1 (stereo not given in full)
Key: > 100 µg/mL

Exercise: # MIC lookup, item CC1=C(C(=O)O)N2C(=O)C(NC(=O)[C@@H](N)c3ccc4c(c3)OCO4)C2SC1 (stereo not given in full)
Key: > 100 µg/mL

Exercise: # MIC lookup, item Cc1nnc(SCC2=C(C(=O)O)N3C(=O)C(NC(=O)[C@@H](N)c4ccc5c(c4)OCO5)C3SC2)s1 (stereo not given in full)
Key: > 100 µg/mL

Exercise: # MIC lookup, item CC1=C(C(=O)O)N2C(=O)[C@@H](NC(=O)[C@H](N)c3ccccc3)[C@H]2SC1 [CEPHALEXIN ANHYDROUS]
Key: ≥ 100 µg/mL
